Reported normalized growth values for the following compounds.
Assay: chemical genetic growth profiling, strain panel (AID 1159580);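 note: tested at 20 µM; growth read once vehicle control cultures reached saturation at 30 °C; 1 = growth at the plate median or of vehicle wells; lower values mean less growth of the strain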
Settings: S. cerevisiae deletion strains, growth OD, locus YAL021C, strain ccr4, hits give low values
Hit rate of the full screen: of about 5,500 compounds, about 2,000 (36%) were called active. Roughly 18% stayed inconclusive and do not appear here. The list shows a part of the results.
Outcome measure: normalized growth

Compound: CC[C@H]1OC(=O)[C@H](C)[C@@H](O[C@H]2C[C@@](C)(OC)[C@@H](O)[C@H](C)O2)[C@H](C)[C@@H](O[C@@H]2O[C@H](C)C[C@H](N(C)C)[C@H]2O)[C@](C)(O)C[C@@H](C)[C@@H]2N[C@@H](COCCOC)O[C@H]([C@H]2C)[C@]1(C)O
Outcome measure: normalized growth
Reading: 0.991 (inactive)

Compound: COc1cc2c(cc1OC)[C@@]13CCN4CC5=CCOC6CC(=O)N2C1[C@H]6[C@H]5C[C@H]43 (some centres not stated)
Outcome measure: normalized growth
Reading: 0.983 (inactive)

Compound: CO[C@H]1C[C@H](O[C@H]2[C@H](C)[C@@H](OC3O[C@H](C)C[C@H](N(C)C)[C@H]3OC(C)=O)[C@@H](C)C[C@]3(CO3)C(=O)[C@H](C)[C@@H](OC(C)=O)[C@@H](C)[C@@H](C)OC(=O)[C@@H]2C)O[C@@H](C)[C@@H]1OC(C)=O (some centres not stated)
Outcome measure: normalized growth
Reading: 0.998 (inactive)

Compound: COc1cnc(NS(=O)(=O)c2ccc(N)cc2)nc1
Outcome measure: normalized growth
Reading: 1.01 (inactive)

Compound: NCCc1cc(O)c(O)cc1O
Outcome measure: normalized growth
Reading: 0.856 (active)

Compound: COc1cc2c(cc1O)CCNC2C (configuration not stated)
Outcome measure: normalized growth
Reading: 1.01 (inactive)

Compound: CCC1(CC)C(=O)C=CNC1=O
Outcome measure: normalized growth
Reading: 0.998 (inactive)
